- experiment description: in vivo
- conditions: BALB/c nude, mouse, in vivo, iv, total radioactivity, T/K Tumor/Kidney ratio
Exercise: for every item that follows, state its recorded tissue to tissue ratio at 24 h.
Answers are plain numbers.

[[record]]
molecule = "C[C@@H](O)[C@H](NC(=O)[C@@H]1CSSC[C@H](NC(=O)[C@@H](Cc2ccccc2)NC(=O)COCCOCCNC(=O)[C@H](CCCCNC(=O)[C@H](CCC(=O)O)NC(=O)c2cccc(NC(=O)N[C@@H]3CN(C4CCCCC4)c4ccccc4N(CC(=O)C(C)(C)C)C3=O)c2)NC(=O)CN2CCN(CC(=O)O)CCN(CC(=O)O)CCN(CC(=O)O)CC2)C(=O)N[C@@H](Cc2ccc(O)cc2)C(=O)N[C@H](Cc2c[nH]c3ccccc23)C(=O)N[C@@H](CCCCN)C(=O)N[C@@H]([C@@H](C)O)C(=O)N1)C(=O)O [Compound I-27, DOTA-K(-E-Z360)-OEG-f[CYwKTC]T-OH]"
recorded_number = 1.4


Need tissue to tissue ratio at 24 h, item C[C@@H](O)[C@H](NC(=O)[C@@H]1CSSC[C@H](NC(=O)[C@@H](Cc2ccccc2)NC(=O)CCOCCOCCOCCNC(=O)[C@H](CCCCNC(=O)c2cccc(NC(=O)N[C@@H]3CN(C4CCCCC4)c4ccccc4N(CC(=O)C(C)(C)C)C3=O)c2)NC(=O)CN2CCN(CC(=O)O)CCN(CC(=O)O)CCN(CC(=O)O)CC2)C(=O)N[C@@H](Cc2ccc(O)cc2)C(=O)N[C@H](Cc2c[nH]c3ccccc23)C(=O)N[C@@H](CCCCN)C(=O)N[C@@H]([C@@H](C)O)C(=O)N1)C(=O)O [Compound I-38, DOTA-K(Z360)-PEG3-f[CYwKTC]T-OH]
1.8
